This listing pairs variants with measured abundance fitness.
B1: Triacylglycerol hydrolase DDHD2, residues 389 to 447; numbered along this chain, O94830 (parent)
chain: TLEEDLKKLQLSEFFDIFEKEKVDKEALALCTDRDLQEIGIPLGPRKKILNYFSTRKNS

# Variants of: B1
# test name: abundance fitness (aPCA) (normalised: wild type 0, dead -1); higher = more abundant; growth selection in yeast, the domain comes from the species named
# condition notes: Homo sapiens
endpoint: abundance fitness

>>> recorded_result("N51A")
0.151
>>> recorded_result("N51D")
0.209
>>> recorded_result("T32E")
0.056
>>> recorded_result("D16P")
-0.145
>>> recorded_result("S12R")
-0.274
>>> recorded_result("D16K")
0.089
>>> recorded_result("R56Y")
0.019
>>> recorded_result("L36H")
-0.352
>>> recorded_result("T55G")
0.007
>>> recorded_result("L11F")
-1.05
>>> recorded_result("S59H")
-0.056
>>> recorded_result("Q37N")
-0.305
>>> recorded_result("D16Q")
0.106
>>> recorded_result("K48G")
-0.698
>>> recorded_result("N58V")
-0.015
>>> recorded_result("E3R")
-0.239
>>> recorded_result("A27E")
0.231
>>> recorded_result("I39C")
-0.411
>>> recorded_result("L6F")
0.134
>>> recorded_result("A29G")
-0.191
>>> recorded_result("N51W")
-0.384
>>> recorded_result("Q10D")
0.069
>>> recorded_result("F53M")
0.023
>>> recorded_result("V23Q")
-0.331
>>> recorded_result("E4N")
-0.341
>>> recorded_result("F15D")
-0.465
>>> recorded_result("E3Q")
-0.251
>>> recorded_result("R46I")
-0.163
>>> recorded_result("S54D")
-0.146
>>> recorded_result("F15K")
0.068
>>> recorded_result("F18W")
-0.535
>>> recorded_result("K57G")
-0.031
>>> recorded_result("K7G")
-0.056
>>> recorded_result("D5P")
-0.904
>>> recorded_result("G44R")
-0.056
>>> recorded_result("P45A")
0.615
>>> recorded_result("L36D")
-0.565
>>> recorded_result("D33V")
-0.693
>>> recorded_result("T32L")
-0.907
>>> recorded_result("Y52D")
-0.088
>>> recorded_result("T55P")
-0.079
>>> recorded_result("L36R")
-0.434
>>> recorded_result("N51Q")
0.166
>>> recorded_result("L43R")
0.512
>>> recorded_result("I17V")
0.128
>>> recorded_result("P45F")
-0.144
